System: Candida albicans
Experiment: Minimum inhibitory concentration to inhibit 90 to 100% visible growth of Candida albicans
Assay type: functional
RECORDED METRIC: MIC (µg/mL)

* CC(C)C1=CC2CC3(C=O)C4CC[C@@H](C)C4CC2(CCOC(=O)Cc2ccc(N(C)C)cc2)C13C(=O)O (some centres undefined) | 1
* CC(C)C1=CC2CC3(C=O)C4CC[C@@H](C)C4CC2(CCOC(=O)c2cccc(C#N)c2)C13C(=O)O (some centres undefined) | 1
* CC(C)CCC#CC(O)C12C[C@@H]3[C@H](C)CC[C@H]3C3(C=O)CC1C=C(C(C)C)[C@@]23C(=O)O (some centres undefined) | 1

###

Test system: Candida albicans
Experiment: Minimum inhibitory concentration to inhibit 90 to 100% visible growth of Candida albicans
Assay type: functional
We begin with a simple list: items and their reported MIC.
RECORDED METRIC: MIC

* CC(C)C1=CC2CC3(C=O)C4CC[C@@H](C)C4CC2(CCOC(=O)c2ccc4[nH]cnc4c2)C13C(=O)O (some centres not stated) | > 128 µg/mL
* CC(C)C1=CC2CC3(C=O)C4CC[C@@H](C)C4CC2(CCO)C13C(=O)O (some centres not stated) | > 128 µg/mL
* CC(C)C1=CC2CC3(C=O)C4CC[C@@H](C)C4CC2(CCOC(=O)c2nccc4ccccc24)C13C(=O)O (some centres not stated) | > 128 µg/mL
* CC(C)C1=CC2CC3(C=O)C4CC[C@@H](C)C4CC2(CCOC(=O)CC(C)(C)C)C13C(=O)O (some centres not stated) | < 0.06 µg/mL
* CC(C)C1=CC2CC3(C=O)C4CC[C@@H](C)C4CC2(CCOC(=O)c2cccs2)C13C(=O)O (some centres not stated) | > 128 µg/mL
* CC(C)CCCC#CC(=O)C12C[C@@H]3[C@H](C)CC[C@H]3C3(C=O)CC1C=C(C(C)C)[C@@]23C(=O)O | < 0.06 µg/mL
* CCCCC#CC(=O)C12C[C@@H]3[C@H](C)CC[C@H]3C3(C=O)CC1C=C(C(C)C)[C@@]23C(=O)O | < 0.06 µg/mL
